system: Mycobacterium tuberculosis; test: Ratio of pyrazinamide MIC99 to compound MIC99 for Mycobacterium tuberculosis H37Rv; assay type: functional
Ratio for assorted molecules
Respond with the number and no other words.

Consider the worked cases shown below.
MOLECULE | OBSERVED VALUE
O=C1Nc2ccccc2[C@]12NC(c1ccccc1)C([N+](=O)[O-])C2c1cccc([N+](=O)[O-])c1 (stereo partly specified) | 1.75
O=C1Nc2ccccc2[C@@]12C(c1cccc(Cl)c1)C([N+](=O)[O-])C1CCCN12 (stereo partly specified) | 1.6
O=C1Nc2ccccc2[C@]12NC(c1ccccc1)C([N+](=O)[O-])C2c1ccc(F)cc1 (stereo partly specified) | 1.6
O=C1Nc2ccccc2[C@@]12C(c1ccc(F)cc1)C([N+](=O)[O-])C1CSCN12 (stereo partly specified) | 6.2
O=C1Nc2ccccc2[C@]12NC(c1ccccc1)C([N+](=O)[O-])C2c1ccc(Cl)cc1 (stereo partly specified) | 1.7
O=C1Nc2ccccc2[C@]12NC(c1ccccc1)C([N+](=O)[O-])C2c1cccc(Cl)c1 (stereo partly specified) | 3.4

The molecule listed as O=C1Nc2ccccc2[C@]12NC(c1ccccc1)C([N+](=O)[O-])C2c1ccc(Br)cc1 (stereo partly specified) shows Ratio equal to 1.9

Entry O=C1Nc2ccccc2[C@@]12C(c1ccc(Cl)cc1)C([N+](=O)[O-])C1CSCN12 (stereo partly specified) ; Ratio = 3.3

Entry under test: O=C1Nc2ccccc2[C@@]12C(c1ccc(Cl)cc1)C([N+](=O)[O-])C1CCCN12 (stereo partly specified) . Its Ratio was 1.6

The molecule identified as O=C1Nc2ccccc2[C@@]12C(c1cccc(Cl)c1)C([N+](=O)[O-])C1CSCN12 (stereo partly specified) registered its Ratio at 6.5

Ratio reported for this molecule O=C1Nc2ccccc2[C@@]12C(c1cccc([N+](=O)[O-])c1)C([N+](=O)[O-])C1CSCN12 (stereo partly specified) : 6.7
